tested on: UCD52 (cells of a triple-negative basal-like breast cancer xenograft); assay: cell viability (% of vehicle); higher = less cytotoxic; conditions: 10 µM; 72 h;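 further: PDX cells carrying CMV promoter-driven luciferase, viability read as total photon flux per second by IVIS imaging following D-luciferin, vehicle control 0.1% DMSO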
Each entry below carries its recorded cell viability.
Please respond with just the number, no unit label.

In: Which value of cell viability has been reported for CCN(CC)CCNC(=O)c1c(C)[nH]c(C=C2C(=O)Nc3ccc(F)cc32)c1C.O=C(O)CC(O)C(=O)O [Sunitinib malate] in the records?
Out: 15.3

In: // query cell viability value for entry CCCCCN(C)CCC(O)(P(=O)([O-])O)P(=O)(O)O.O.[Na+] [Ibandronate sodium]
Out: 115

In: Bench note: what cell viability did CN(C)CCCC1(c2ccc(F)cc2)OCc2cc(C#N)ccc21.O=C(O)C(=O)O (centres undefined) [Escitalopram Oxalate] show?
Out: 90.9

Next:
In: Which measured cell viability value corresponds to CCCc1nc(C(C)(C)O)c(C(=O)OCc2oc(=O)oc2C)n1Cc1ccc(-c2ccccc2-c2nn[nH]n2)cc1 ?
Out: 168

In: Entry CN(CC=CC#CC(C)(C)C)Cc1cccc2ccccc12 has what cell viability?
Out: 106

In: Param item = CCN(CC)CC#CCOC(=O)C(O)(c1ccccc1)C1CCCCC1 (centres undefined) ; retrieve measured cell viability.
Out: 82.9

In: Would you kindly share the measured cell viability for CCN(CC)CCNC(=O)c1c(C)[nH]c(C=C2C(=O)Nc3ccc(F)cc32)c1C ?
Out: 61.8

In: I'd like to know its cell viability. The compound in question is CN(C)CCOc1ccc(C(=C(CCCl)c2ccccc2)c2ccccc2)cc1.O=C(O)CC(O)(CC(=O)O)C(=O)O [Toremifene Citrate]
Out: 38.3

In: Given the entry CS(=O)(=O)CCNCc1ccc(-c2ccc3ncnc(Nc4ccc(OCc5cccc(F)c5)c(Cl)c4)c3c2)o1 , report its measured cell viability.
Out: 51.2

In: Name the recorded cell viability for COc1ccccc1OCC(O)CN1CCN(CC(=O)Nc2c(C)cccc2C)CC1.Cl.Cl (centres undefined) [Ranolazine 2HCl] .
Out: 85.7

In: Look up cell viability for this compound: CC(=O)Oc1cc2c(s1)CCN(C(C(=O)C1CC1)c1ccccc1F)C2.Cl (centres undefined) [Prasugrel hydrochloride]
Out: 110

In: Which cell viability reading was recorded for the compound COC(=O)Nc1nc2ccc(Sc3ccccc3)cc2[nH]1 ?
Out: 121

====

system: HCI11 (cells of an ER-positive luminal breast cancer xenograft); test: cell viability (% of vehicle); higher = less cytotoxic; settings: 10 µM; 72 h
Some compounds, each annotated with its measured cell viability.
Hey, just send me the number, nothing else.

Worked cases, answers included:
In: Request the reported cell viability associated with Cc1nccn1CC1CCc2c(c3ccccc3n2C)C1=O.Cl.O.O (stereo not given) [Ondansetron hydrochloride dihydrate]
Out: 107

In: Quick one: cell viability of CCCCCCCCCCCCCCCCCCCCCCO [Docosanol (Abreua)] ?
Out: 95.6

In: Please report the recorded cell viability for COc1cc2c(cc1Cc1cccc(Cl)c1F)c(=O)c(C(=O)O)cn2C(CO)C(C)C (stereo not given) [Elvitegravir (GS-9137)] .
Out: 109

In: Which cell viability value is on record for Cc1ccc(-c2cc(C(F)(F)F)nn2-c2ccc(S(N)(=O)=O)cc2)cc1 [Celecoxib] ?
Out: 94.4

Next:
In: Query: cell viability; subject: CC(=O)OCC(=O)C1CCC2C3CCC4=CC(=O)CCC4(C)C3CCC12C (stereo not given) [Deoxycorticosterone acetate]
Out: 112

In: Returns the measured cell viability for the input compound. Input: CO[C@H]1C[C@@H]2CC[C@@H](C)[C@@](O)(O2)C(=O)C(=O)N2CCCC[C@H]2C(=O)O[C@H]([C@H](C)C[C@@H]2CC[C@@H](OC(=O)C(C)(CO)CO)[C@H](OC)C2)CC(=O)[C@H](C)/C=C(\C)[C@@H](O)[C@@H](OC)C(=O)[C@H](C)C[C@H](C)/C=C/C=C/C=C/1C [Temsirolimus]
Out: 54.3

In: // cell viability lookup, key: OCCOc1ccc(C(=C(CCCl)c2ccccc2)c2ccccc2)cc1 [Ospemifene]
Out: 106

====

system: HCI16 (cells of a triple-negative basal-like breast cancer xenograft); test: cell viability (% of vehicle); higher = less cytotoxic; conditions: 10 µM; 72 h
Property: cell viability; scope: individual compounds
Write no unit; give the number alone.

Reference set, count: 6
In: Entry CC(C)CN(CC(O)C(Cc1ccccc1)NC(=O)OC1CCOC1)S(=O)(=O)c1ccc(N)cc1 (configuration not stated) : reported cell viability = ?
Out: 115

In: Fill blank: measured cell viability of the compound O=C(O)CCNC(=O)c1ccc(/N=N/c2ccc(O)c(C(=O)O)c2)cc1 [Balsalazide] is ____.
Out: 114

In: Could you tell me which cell viability is on file for CCC(C)(C)c1ccc(CC(C)CN2CC(C)OC(C)C2)cc1.Cl (configuration not stated) [Amorolfine HCl] ?
Out: 119

In: # input compound: Nc1nc(=O)c2nc(CNc3ccc(C(=O)NC(CCC(=O)O)C(=O)O)cc3)cnc2[nH]1 (configuration not stated) ; wanted: its cell viability
Out: 117

In: What value of cell viability has been recorded for this entry: Cl.NCCc1ccc(O)c(O)c1 [Dopamine HCl]
Out: 125

In: # get_value(readout='cell viability', item= CCCCCC(O)C=CC1C(O)CC(=O)C1CCCCCCC(=O)O (configuration not stated) )
Out: 175

We next turn to a different compound, shown below.
In: I have this compound here, CC12CCC3c4ccc(O)cc4CC(CCCCCCCCCS(=O)CCCC(F)(F)C(F)(F)F)C3C1CCC2O (configuration not stated) , and I need its recorded cell viability.
Out: 95.7

====

system: HCI09 (cells of a triple-negative luminal androgen receptor type breast cancer xenograft); assay: cell viability (% of vehicle); higher = less cytotoxic; details: 10 µM; 72 h
value.type: cell viability
Lab note: record just the number, no unit beside it.

Example entries and their recorded answers appear below.
In: So what does the record say about cell viability for CC(C)(C)NCC(O)c1cc(O)cc(O)c1.CC(C)(C)NCC(O)c1cc(O)cc(O)c1.O=S(=O)(O)O (stereo not drawn) [Terbutaline Sulfate] ?
Out: 98.9

In: What does the data say about its cell viability? Entry: NCCS(=O)(=O)O [Taurine]
Out: 101

Next:
In: May I ask what cell viability has been recorded for CCN1CCCC1CNC(=O)c1cc(S(N)(=O)=O)ccc1OC (stereo not drawn) [Levosulpiride] ?
Out: 99.3

====

tested on: HCI01 (cells of a triple-negative basal-like breast cancer xenograft); test: cell viability (% of vehicle); higher = less cytotoxic; conditions: 10 µM; 72 h
value.type: cell viability
Please give only the number in your answer, with no unit.

Would you please look over these solved cases?
In: What cell viability value was documented for this molecule, Cc1ccccc1C(=O)Nc1ccc(C(=O)N2CCCC(O)c3cc(Cl)ccc32)c(C)c1 (stereo not given) ?
Out: 97.7

In: Need cell viability, item CC(CCc1ccccc1)NCC(O)c1ccc(O)c(C(N)=O)c1.Cl (stereo not given) [Labetalol HCl]
Out: 101

More entries:
In: What value of measured cell viability is listed for NNC(=O)c1ccncc1 ?
Out: 97.4

In: What value of cell viability has been reported for the following molecule? CO[C@H]1O[C@@H]2O[C@@]3(C)CC[C@H]4[C@H](C)CC[C@@H]([C@H]1C)[C@@]24OO3 [Artemether (SM-224)]
Out: 102

In: Requested read-out: cell viability. Entry: Cn1c(=O)c2[nH]cnc2n(C)c1=O
Out: 98.1

====

test system: WHIM30 (cells of a triple-negative basal-like breast cancer xenograft); assay: cell viability (% of vehicle); higher = less cytotoxic; conditions: 10 µM; 72 h
value.type: cell viability
The answer should be written as a number, with no unit following it.

In: Which measured cell viability belongs to COc1cc2c(Oc3ccc4[nH]c(C)cc4c3F)ncnc2cc1OCCCN1CCCC1 , tested on WHIM30?
Out: 68.3

In: Provide the documented cell viability with WHIM30 as the system for NS(=O)(=O)Cc1noc2ccccc12 [Zonisamide]
Out: 129

In: Item Cc1nc(C(=O)NCC(=O)O)c(O)c2ccc(Oc3ccccc3)cc12 with WHIM30 - cell viability?
Out: 116

Continuing:
In: Please provide the recorded cell viability for CN(Cc1cnc2nc(N)nc(N)c2n1)c1ccc(C(=O)NC(CCC(=O)O)C(=O)O)cc1 (stereo not drawn) [Methotrexate] , tested on WHIM30.
Out: 94.9

In: State its cell viability on WHIM30: COC1=CC=C(/C(C2=CC=C(OC)C=C2)=C(Cl)/C3=CC=C(OC)C=C3)C=C1
Out: 96.6

In: Lab request: please report cell viability under test system WHIM30 for CC(=O)C1(O)Cc2c(O)c3c(c(O)c2C(OC2CC(N)C(O)C(C)O2)C1)C(=O)c1ccccc1C3=O.Cl (stereo not drawn) [Idarubicin HCl]
Out: 44.7

In: Field: cell viability (WHIM30). Entry: COCCCN1CCC(NC(=O)c2cc(Cl)c(N)c3c2OCC3)CC1 [Prucalopride]
Out: 123

In: Requested read-out cell viability, target or system WHIM30, entry CN(CC/C=C1C2=CC=CC=C2C=CC3=CC=CC=C3\1)C.Cl [Cyclobenzaprine HCl]
Out: 89.9

In: API: value(readout=cell viability, system=WHIM30) for record Cl.O=C(CCCN1CCC(O)(c2ccc(Cl)cc2)CC1)c1ccc(F)cc1 [Haloperidol hydrochloride]
Out: 60.2

In: Lab request: please report cell viability under test system WHIM30 for O=C1CN(/N=C/c2ccc(-c3ccc([N+](=O)[O-])cc3)o2)C([O-])=N1.[Na+] [Dantrolene, sodium salt]
Out: 130

In: Enter reported cell viability observed with WHIM30 for CCCNC(C)C(=O)Nc1ccccc1C.Cl (stereo not drawn) [Prilocaine hydrochloride]
Out: 135

In: Find cell viability (WHIM30) for the entry Cl.N#Cc1ccc2[nH]cc(CCCCN3CCN(c4ccc5oc(C(N)=O)cc5c4)CC3)c2c1 [Vilazodone Hydrochloride]
Out: 112
